- Tested on: V79 cells
- Procedure Text: Nuclear γH2AX foci and pan-staining (immunocytochemistry)
- Type: cell-based, hamster
- Measurement Context: 50 µM, 24 h, V79
Experimental Readout: ≥ 30 Foci [%] (%)

- Nc1ccccc1NC(=O)c1ccc(CNC(=O)OCc2cccnc2)cc1 [Entinostat, entinostat, reference compound]: 12.2
- O=C(CCCCCCC(=O)Nc1ccccc1)NO [Vorinostat, vorinostat, reference compound]: 15.6

A: CN(C)c1ccc(C(=O)N(CC(=O)NCc2ccccc2)Cc2ccc(C(=O)NO)cc2)cc1
B: Nc1ccc(F)cc1NC(=O)c1ccc(CONC(=O)C=Cc2cccnc2)cc1
Given A and B , report the one with the higher recorded ≥ 30 Foci [%]. In your reply, give the label of the chosen option.
A
(A: 17.8%, B: 0.0%)
